# Target entity: T1, full-length human 14-3-3β fused to the C terminus of MBP (human, UniProt P31946 1-246)
# T1 chain: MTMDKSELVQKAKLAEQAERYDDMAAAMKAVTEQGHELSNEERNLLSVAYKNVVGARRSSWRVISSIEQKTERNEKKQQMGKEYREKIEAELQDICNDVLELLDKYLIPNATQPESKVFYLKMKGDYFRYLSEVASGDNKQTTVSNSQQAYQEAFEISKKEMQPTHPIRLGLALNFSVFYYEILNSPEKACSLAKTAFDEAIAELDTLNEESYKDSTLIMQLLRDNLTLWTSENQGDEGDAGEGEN
# Test name: FP
Non-standard residues stand in square brackets, D forms with d. No end group written: not given here. *: point of attachment. FITC = O=C1OC2(c3ccc(O)cc3Oc3cc(O)ccc32)c2ccc(NC(=S)*)cc21; Biotin = O=C1N[C@H]2[C@H](CS[C@H]2CCCCC(=O)*)N1; pT = C[C@@H](OP(=O)(O)O)[C@H](N)C(=O)O; ttds = NCCCOCCOCCOCCCNC(=O)CCC(=O)*; pS = N[C@@H](COP(=O)(O)O)C(=O)O

| Binder | Output unit | Kd |
| --- | --- | --- |
| {Biotin-ttds}-RRVRKLPS[pT]TL [RSK1 phospho-PBM peptide RSK1_-2P] | µM | 0.96 |
| {FITC}-WLRRA[pS]APLPGLK [fluorescently labeled HSPB6 phosphopeptide (fpB6)] | µM | 5.22 |
| {Biotin-ttds}-SSRTRRE[pT]QL [HPV16 E6 phospho-PBM peptide p16E6] | µM | 159 |
| {Biotin-ttds}-RRVRKLPST[pT]L [RSK1 phospho-PBM peptide RSK1_-1P] | µM | 0.74 |
| {Biotin-ttds}-RLQRRRE[pT]QV [HPV18 E6 phospho-PBM peptide p18E6] | µM | 42.2 |
